# System: HepG2
# Protocol Details: cell viability relative to DMSO; higher = less toxic
# Assay Context: 72 h; 10000 nM
Would you mind telling me the reported cell viability of each entry?
Please answer using a numeric value trailed by its unit.

Ask: State its cell viability on HepG2: C[n+]1c2cc(N)ccc2cc2ccc(N)cc21.Nc1ccc2cc3ccc(N)cc3nc2c1 [acriflavine]
Reply: 0.7%

Ask: Now the same for `CNc1nc(-c2ccc3c(N)n[nH]c3c2)cc(N2C[C@@H](C(=O)NC3CCCCC3)CC[C@H]2C)n1`
Reply: 53.9%

Ask: Now the same for CCCOc1ccc(C(=O)OCCN(CC)CC)cc1N [proxymetacaine]
Reply: 97.9%

Ask: Now the same for Cc1cc(C)cc(C(=O)N(C)[C@H](Cc2ccc(-c3ccccc3)cc2)C(=O)N[C@@H](Cc2c[nH]c3ccccc23)C(=O)O)c1 [IRL-2500]
Reply: 118%

Alright, here's another molecule for you.
Ask: State its cell viability on HepG2: CN1CCCC(CN2c3ccccc3Sc3ccccc32)C1 (stereo not given) [mepazine]
Reply: 84.8%

###

# System: Vero E6
# Protocol Details: cell viability relative to DMSO; higher = less toxic
# Assay Context: 72 h; 10000 nM
Would you mind telling me the reported cell viability of each entry?
One number for each entry, in %.

Ask: Any idea what cell viability was measured for `Oc1c(Cl)cc(Cl)cc1Sc1cc(Cl)cc(Cl)c1O` ?
Reply: 96.4

Ask: Now the same for `Cc1cc(C(=CNc2ccc(Cl)cc2)C(=O)Nc2ccc(Cl)cc2)on1`
Reply: 98.1

Ask: Now the same for `c1ccc(CN(CC2=NCCN2)c2ccccc2)cc1`
Reply: 91.7

Ask: Now the same for `CC(C)[C@H](N)C(=O)OCCOCn1cnc2c(=O)nc(N)[nH]c21`
Reply: 105

Ask: Now the same for `Cc1ccc(-c2csc(NC(=O)c3ccccc3)n2)c(C)c1`
Reply: 91.1

Ask: Now the same for CC(COc1ccccc1)N(CCCl)Cc1ccccc1 (stereo not drawn)
Reply: 94.3

Ask: Now the same for `C[C@](N)(Cc1ccc(O)cc1)C(=O)O`
Reply: 96.4

Ask: Now the same for `Nc1nc(OCC2CCCCC2)c2nc[nH]c2n1`
Reply: 99.7

I would be grateful if you could provide cell viability for each of the following entries.
1. Oc1ncnc2[nH]ncc12
2. Cc1cc2nc3c(=O)[nH]c(=O)nc-3n(C[C@H](O)[C@H](O)[C@H](O)CO)c2cc1C
3. C1CCC(NC2CCCCC2)CC1
4. C[C@H]1C[C@@H]2[C@H]([C@@H](O)C[C@@]3(C)[C@H]2CC[C@]3(O)C(=O)COC(=O)CCC(=O)O)[C@@]2(C)C=CC(=O)C=C12 [methylprednisolone-sodium-succinate]
5. CC(C)(C)c1cc(O)c(C(C)(C)C)cc1O
6. c1ccc(CCNc2nc(-c3ccccc3)cs2)cc1
7. CCCc1nn(C)c2c(=O)[nH]c(-c3cc(S(=O)(=O)N4CCN(C)CC4)ccc3OCC)nc12

Reply:
93.9
95.4
97.5
98.2
91.8
100
96.1

I would be grateful if you could provide cell viability for each of the following entries.
1. COc1ccc(-c2cc(=O)c3c(O)cc(O)cc3o2)cc1O
2. C[C@@H](N[C@H]1CCCC[C@@H]1NC(=O)c1ccc(Cl)cc1)c1cccc2ccccc12
3. COc1cc(C(=O)NCc2ccc(OCCN(C)C)cc2)cc(OC)c1OC [trimethobenzamide]

Reply:
113
93.4
99.9

Where do the numbers come from? From the supplement of paper PMC13380429.
